Endpoint summary: IC50, system: Receptor tyrosine-protein kinase erbB-2 (Homo sapiens, UniProt P04626), multiple sources combined.
MEASUREMENT NAME: IC50

* CC(C)c1nc(-c2cccc(NS(=O)(=O)c3c(F)cccc3F)c2)c(-c2ccnc(Nc3ccc(N4CCN(CCO)CC4)nc3)n2)s1 | > 1000 nM
* COc1cc(Nc2ncnc(-c3cccnc3Nc3ccccc3)n2)ccc1NC(=O)CCCN1CCNCC1 | > 8340 nM
* CC(C)c1nc(-c2cc(F)cc(NS(=O)(=O)c3c(F)cccc3F)c2)c(-c2ccnc(Nc3ccc(N4CCOCC4)nc3)n2)s1 | > 1000 nM
* COc1ccc(S(=O)(=O)Nc2cccc(-c3nc(C(C)C)sc3-c3ccnc(Nc4ccc(N5CCOCC5)nc4)n3)c2)cn1 | > 1000 nM
* O=C(NCC#Cc1cc2ncnc(Nc3ccc(OCc4cccc(F)c4)c(Cl)c3)c2s1)c1ccc2[nH]ccc2c1 | 31.6 to 100 nM
* C=CC(=O)N1CCOc2c1ccc1ncnc(Oc3ccc(OCc4ccc(F)cc4)cc3)c21 | ≤ 50 nM
* CCO/N=C/c1c(N)ncnc1Nc1ccc(OCc2cccc(F)c2)c(Cl)c1 | 40 nM
